Hi there, I'd appreciate the recorded Selectivity = IC50 PDE 1C/IC50 PDE9A (both nanomolar) for every entry that follows.
target: PDE1C (Homo sapiens, UniProt Q14123); construct: made in house; host or cells: SF9 insect cells (crude lysate used as enzyme source); assay: PDE enzymatic activity assay (SPA), PDE1C, cAMP as substrate; assay type: biochemical; conditions: ratio IC50 PDE1C / IC50 PDE9A; for illustrative purposes

Ask: Name the reported Selectivity = IC50 PDE 1C/IC50 PDE9A (both nanomolar) value associated with the compound `O=c1[nH]c(Cc2ccccc2OC(F)(F)F)nc2c1cnn2-c1cc(O)ccc1Cl`
Result: 14

Ask: Name the reported Selectivity = IC50 PDE 1C/IC50 PDE9A (both nanomolar) value associated with the compound `O=c1[nH]c(Cc2ccccc2OC(F)(F)F)nc2c1cnn2-c1ccc(F)cc1F`
Result: 8

Ask: Name the reported Selectivity = IC50 PDE 1C/IC50 PDE9A (both nanomolar) value associated with the compound `O=c1[nH]c(Cc2ccccc2OC(F)(F)F)nc2c1cnn2-c1cc(F)ccc1Cl`
Result: 7

Ask: Name the reported Selectivity = IC50 PDE 1C/IC50 PDE9A (both nanomolar) value associated with the compound `Cc1cc(F)c(F)cc1-n1ncc2c(=O)[nH]c(Cc3ccccc3OC(F)(F)F)nc21`
Result: 93
